target: Sodium-dependent noradrenaline transporter (Homo sapiens, UniProt P23975); assay: DRUGMATRIX: Norepinephrine Transporter radioligand binding (ligand: [125I] RTI-55); type: cell membranes, MDCK, Membrane; details: mdck; Not Active = under 50% inhibition at 10 µM
Sequence (P23975 whole entry): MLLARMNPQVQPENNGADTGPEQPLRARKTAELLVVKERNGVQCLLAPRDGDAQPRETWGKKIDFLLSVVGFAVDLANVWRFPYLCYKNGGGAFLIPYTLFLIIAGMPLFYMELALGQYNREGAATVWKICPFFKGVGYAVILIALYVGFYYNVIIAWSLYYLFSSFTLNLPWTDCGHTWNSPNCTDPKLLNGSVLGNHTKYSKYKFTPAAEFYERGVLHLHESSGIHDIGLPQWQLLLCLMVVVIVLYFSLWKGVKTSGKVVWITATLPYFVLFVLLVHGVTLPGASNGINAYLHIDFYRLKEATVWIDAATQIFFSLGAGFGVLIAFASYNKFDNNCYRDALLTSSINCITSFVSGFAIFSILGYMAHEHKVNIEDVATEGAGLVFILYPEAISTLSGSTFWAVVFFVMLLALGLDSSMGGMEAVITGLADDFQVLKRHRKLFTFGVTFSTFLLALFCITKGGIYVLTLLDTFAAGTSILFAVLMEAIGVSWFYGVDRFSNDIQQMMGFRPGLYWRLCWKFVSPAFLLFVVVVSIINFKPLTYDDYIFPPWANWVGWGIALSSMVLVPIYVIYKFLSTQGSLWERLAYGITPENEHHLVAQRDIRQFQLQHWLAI
METRIC NAME: IC50

Examples from the recorded data:
CNC(=C[N+](=O)[O-])NCCSCc1csc(CN(C)C)n1 | Not Active
CCn1cc(C(=O)O)c(=O)c2cc(F)c(N3CCNCC3)nc21 | Not Active
CN(C(=O)CCCOc1ccc2[nH]c(=O)ccc2c1)C1CCCCC1 [CILOSTAMIDE] | Not Active
CC(=O)Nc1nnc(S(N)(=O)=O)s1 [ACETAZOLAMIDE] | Not Active
COC(=O)c1ccccc1O [METHYL SALICYLATE] | Not Active
NC[C@H]1O[C@H](O[C@H]2[C@H](O)[C@@H](O[C@H]3O[C@H](CO)[C@@H](O)[C@H](N)[C@H]3O)[C@H](N)C[C@@H]2N)[C@H](N)C[C@@H]1O | Not Active

As a next step, examine the compound that follows.
State, for Sodium-dependent noradrenaline transporter (Homo sapiens, UniProt P23975), measured IC50 of the compound listed here: O=P(O)(O)C(O)(Cc1cccnc1)P(=O)(O)O
Not Active

###

Molecular target: Neuropeptide Y receptor type 2 (Homo sapiens, UniProt P49146); note: in other assays of this panel Not Active means under 50% inhibition at 10 µM
Sequence (P49146 whole entry): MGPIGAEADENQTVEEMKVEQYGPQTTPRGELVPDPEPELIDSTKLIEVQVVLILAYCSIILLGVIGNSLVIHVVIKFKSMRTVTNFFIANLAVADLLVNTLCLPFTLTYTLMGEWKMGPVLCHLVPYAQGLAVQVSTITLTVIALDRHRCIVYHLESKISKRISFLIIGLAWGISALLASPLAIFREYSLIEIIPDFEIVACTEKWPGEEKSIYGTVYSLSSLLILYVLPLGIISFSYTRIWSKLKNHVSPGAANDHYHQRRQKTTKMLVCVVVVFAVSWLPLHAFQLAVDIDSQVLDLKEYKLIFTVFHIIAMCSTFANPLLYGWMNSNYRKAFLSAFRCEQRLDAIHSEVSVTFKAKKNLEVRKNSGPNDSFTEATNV
Format: cell membranes, Membrane
Settings: kan-ts
METRIC NAME: IC50

C[C@]12C/C(=C/O)C(=O)C[C@@H]1CC[C@@H]1[C@@H]2CC[C@@]2(C)[C@H]1CC[C@]2(C)O [OXYMETHOLONE] | Not Active
CCC[C@@H]1C[C@@H](C(=O)N[C@@H]([C@H]2O[C@H](SC)[C@H](O)[C@@H](O)[C@H]2O)[C@H](C)Cl)N(C)C1 [CLINDAMYCIN] | Not Active
COc1ccc(CN2CCNCC2)c(OC)c1OC [TRIMETAZIDINE] | Not Active
Cc1c(N(C)CS(=O)(=O)[O-])c(=O)n(-c2ccccc2)n1C.[Na+] [DIPYRONE SODIUM] | Not Active
CC[C@H]1OC(=O)[C@H](C)[C@@H](O[C@H]2C[C@@](C)(OC)[C@@H](O)[C@H](C)O2)[C@H](C)[C@@H](O[C@@H]2O[C@H](C)C[C@H](N(C)C)[C@H]2O)[C@](C)(OC)C[C@@H](C)C(=O)[C@H](C)[C@@H](O)[C@]1(C)O [CLARITHROMYCIN] | Not Active

In the following, a different compound is considered.
Return reported IC50. Input compound: CC[C@H](C)C(=O)O[C@H]1C[C@@H](C)C=C2C=C[C@H](C)[C@H](CC[C@@H]3C[C@@H](O)CC(=O)O3)[C@H]21 [LOVASTATIN]
Not Active

###

biological target: C-C chemokine receptor type 2 (Homo sapiens, UniProt P41597); type: cell membranes, CHO-K1, Membrane; settings: cho-k1; note: in other assays of this panel Not Active means under 50% inhibition at 10 µM
Sequence (P41597 whole entry): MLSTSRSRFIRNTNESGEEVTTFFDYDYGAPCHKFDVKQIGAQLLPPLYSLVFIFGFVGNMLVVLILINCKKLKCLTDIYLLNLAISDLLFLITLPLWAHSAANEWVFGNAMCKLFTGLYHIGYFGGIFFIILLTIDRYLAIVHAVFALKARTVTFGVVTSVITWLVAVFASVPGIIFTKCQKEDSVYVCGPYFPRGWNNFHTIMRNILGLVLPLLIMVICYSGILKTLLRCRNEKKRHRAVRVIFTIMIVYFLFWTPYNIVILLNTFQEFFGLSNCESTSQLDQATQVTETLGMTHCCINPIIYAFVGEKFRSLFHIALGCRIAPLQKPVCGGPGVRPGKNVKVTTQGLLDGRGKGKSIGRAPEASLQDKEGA
METRIC NAME: IC50

Use these answered entries as a reference point.
CC[C@H](C)C(=O)O[C@H]1C[C@@H](C)C=C2C=C[C@H](C)[C@H](CC[C@@H]3C[C@@H](O)CC(=O)O3)[C@H]21 [LOVASTATIN] | Not Active
O=C(O)Cc1ccc(-c2ccccc2)cc1 [FELBINAC] | Not Active
CC(C(=O)O)c1ccc(-c2ccccc2)c(F)c1 (stereo unspecified) [FLURBIPROFEN] | Not Active
NC(=O)N1c2ccccc2C=Cc2ccccc21 [CARBAMAZEPINE] | Not Active

Tell me its IC50 on C-C chemokine receptor type 2 (Homo sapiens, UniProt P41597): CN[C@@H]1[C@H](O)[C@H](NC)[C@H]2O[C@@]3(O)C(=O)C[C@@H](C)O[C@H]3O[C@@H]2[C@H]1O [SPECTINOMYCIN]
Not Active

Find the measured IC50 of Nc1nc2c(c(=O)[nH]1)N(C=O)C(CNc1ccc(C(=O)N[C@@H](CCC(=O)O)C(=O)O)cc1)CN2 (stereo partly specified) [LEUCOVORIN] with C-C chemokine receptor type 2 (Homo sapiens, UniProt P41597) as test system.
Not Active

Check C-C chemokine receptor type 2 (Homo sapiens, UniProt P41597) data and give IC50 for CCOC(=O)[C@H](CCc1ccccc1)N[C@@H](C)C(=O)N1CCC[C@H]1C(=O)O .
Not Active

Give IC50 for this entry on C-C chemokine receptor type 2 (Homo sapiens, UniProt P41597): CCS(=O)(=O)CCn1c([N+](=O)[O-])cnc1C [TINIDAZOLE]
Not Active

Lab note: C-C chemokine receptor type 2 (Homo sapiens, UniProt P41597) assay, enter IC50 for CNC(=C[N+](=O)[O-])NCCSCc1csc(CN(C)C)n1 [NIZATIDINE] here
Not Active

Print C-C chemokine receptor type 2 (Homo sapiens, UniProt P41597) IC50 for CCOC(N)=O .
Not Active

Return reported IC50 for target or system C-C chemokine receptor type 2 (Homo sapiens, UniProt P41597), item CC[C@@H](CO)NC(=O)[C@@H]1C=C2c3cccc4c3c(cn4C)C[C@H]2N(C)C1 [METHYSERGIDE] . Note: in other assays of this panel Not Active means under 50% inhibition at 10 µM.
Not Active

###

experiment: DRUGMATRIX: Potassium Channel [KATP] radioligand binding (ligand: [3H] Glyburide); assay type: cell membranes, Membrane; conditions: hit-t15; Not Active = under 50% inhibition at 10 µM; read-out: Ki
METRIC NAME: Ki (nM)
State just the number; it will be interpreted in nM.

Answer with the recorded Ki for the compound listed here: Cc1cnc(C(=O)NCCc2ccc(S(=O)(=O)NC(=O)NC3CCCCC3)cc2)cn1 [GLIPIZIDE]
45

###

biological target: Beta-1 adrenergic receptor (Homo sapiens, UniProt P08588); experiment: DRUGMATRIX: Adrenergic beta1 radioligand binding (ligand: [125I] Cyanopindolol); assay type: cell membranes, CHO-K1, Membrane; settings: cho-k1; Not Active = under 50% inhibition at 10 µM
Sequence (P08588 whole entry): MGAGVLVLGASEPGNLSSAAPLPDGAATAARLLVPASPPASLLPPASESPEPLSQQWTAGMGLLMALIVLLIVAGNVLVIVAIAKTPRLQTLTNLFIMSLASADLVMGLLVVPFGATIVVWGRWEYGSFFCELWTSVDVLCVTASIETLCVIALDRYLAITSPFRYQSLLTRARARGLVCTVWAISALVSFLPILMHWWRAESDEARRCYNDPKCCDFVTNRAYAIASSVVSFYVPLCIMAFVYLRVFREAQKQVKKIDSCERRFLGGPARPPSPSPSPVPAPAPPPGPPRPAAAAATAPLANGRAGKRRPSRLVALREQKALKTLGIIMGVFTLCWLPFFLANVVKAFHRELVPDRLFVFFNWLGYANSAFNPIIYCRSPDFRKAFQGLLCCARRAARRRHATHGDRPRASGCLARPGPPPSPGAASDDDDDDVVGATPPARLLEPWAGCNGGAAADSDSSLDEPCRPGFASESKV
METRIC NAME: Ki

Below, 4 substances whose answers are already recorded.
THIMEROSAL | Not Active
COBALT(II) ACETYLACETONATE | Not Active
INSULIN HUMAN | Not Active
STANNOUS FLUORIDE | Not Active

Retrieve Ki measured for POLYVINYL ALCOHOL and print it.
Not Active

###

target: D(3) dopamine receptor (Homo sapiens, UniProt P35462); test: DRUGMATRIX: Dopamine D3 radioligand binding (ligand: [3H] Spiperone); format: cell membranes, CHO, Membrane; conditions: cho
Sequence (P35462 whole entry): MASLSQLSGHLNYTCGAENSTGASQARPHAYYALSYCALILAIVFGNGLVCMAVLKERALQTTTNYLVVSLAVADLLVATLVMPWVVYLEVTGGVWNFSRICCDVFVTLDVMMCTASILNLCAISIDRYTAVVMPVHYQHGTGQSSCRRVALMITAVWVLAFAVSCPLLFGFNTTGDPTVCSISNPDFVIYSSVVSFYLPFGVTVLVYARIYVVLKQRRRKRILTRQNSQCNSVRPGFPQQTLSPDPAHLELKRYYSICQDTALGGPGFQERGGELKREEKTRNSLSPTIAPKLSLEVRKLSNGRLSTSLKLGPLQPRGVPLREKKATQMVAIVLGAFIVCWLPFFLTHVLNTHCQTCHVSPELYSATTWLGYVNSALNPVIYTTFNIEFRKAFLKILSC
METRIC NAME: IC50

Before answering, review these 5 worked examples.
CNS(=O)(=O)Cc1ccc2[nH]cc(CCN(C)C)c2c1 | Not Active
CCOC(N)=O | Not Active
Cc1cnc(C(=O)NCCc2ccc(S(=O)(=O)NC(=O)NC3CCCCC3)cc2)cn1 [GLIPIZIDE] | Not Active
C[C@]12CCC(=O)C=C1CC[C@@H]1[C@@H]2[C@@H](O)C[C@@]2(C)[C@H]1CC[C@]2(O)C(=O)CO [HYDROCORTISONE] | Not Active
CNC(=C[N+](=O)[O-])NCCSCc1csc(CN(C)C)n1 | Not Active

Please give the documented IC50 of C[C@@H]1CC[C@H]2[C@@H](C)C(=O)O[C@@H]3O[C@@]4(C)CC[C@@H]1[C@]32OO4
Not Active

Answer with the recorded IC50 for the compound listed here: CN(Cc1cnc2nc(N)nc(N)c2n1)c1ccc(C(=O)N[C@@H](CCC(=O)O)C(=O)O)cc1 [METHOTREXATE]
Not Active

###

molecular target: Adenosine receptor A2a (Homo sapiens); experiment: DRUGMATRIX: Adenosine A2A radioligand binding (ligand: […]); assay type: cell membranes, HEK293, Membrane; details: hek293; Not Active = under 50% inhibition at 10 µM
Sequence (P29274 whole entry): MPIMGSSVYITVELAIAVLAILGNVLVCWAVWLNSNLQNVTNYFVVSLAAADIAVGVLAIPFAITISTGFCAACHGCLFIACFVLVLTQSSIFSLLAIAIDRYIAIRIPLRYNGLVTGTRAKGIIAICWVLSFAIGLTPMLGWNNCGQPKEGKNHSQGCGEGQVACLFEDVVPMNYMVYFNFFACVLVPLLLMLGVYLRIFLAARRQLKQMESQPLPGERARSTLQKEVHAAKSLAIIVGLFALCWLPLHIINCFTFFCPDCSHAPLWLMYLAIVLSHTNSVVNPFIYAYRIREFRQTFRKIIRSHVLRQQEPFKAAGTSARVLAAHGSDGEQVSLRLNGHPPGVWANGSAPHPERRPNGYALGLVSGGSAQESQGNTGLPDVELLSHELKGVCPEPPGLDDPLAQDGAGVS
METRIC NAME: IC50

Some entries whose results are on file:
CC(C(=O)O)c1ccc(CC2CCCC2=O)cc1 (centres undefined) [LOXOPROFEN] | Not Active
CC(C)OC(=O)C(C)(C)Oc1ccc(C(=O)c2ccc(Cl)cc2)cc1 [FENOFIBRATE] | Not Active
COc1ccc(/C=C/C(=O)Nc2ccccc2C(=O)O)cc1OC | Not Active
N=C(N)N/N=C/c1c(Cl)cccc1Cl [GUANABENZ] | Not Active
C[C@]12CCC(=O)C=C1CC[C@@H]1[C@@H]2[C@@H](O)C[C@@]2(C)[C@H]1CC[C@]2(O)C(=O)CO [HYDROCORTISONE] | Not Active
CCS(=O)(=O)CCn1c([N+](=O)[O-])cnc1C [TINIDAZOLE] | Not Active

Supply measured IC50 of CN1C2CCCC1CC(NC(=O)c1nn(C)c3ccccc13)C2 (centres undefined) [GRANISETRON] in your reply.
Not Active

Respond only with IC50 recorded for CC(C)(C)c1ccc(S(=O)(=O)/C=C/C#N)cc1 [BAY-11-7085]
Not Active

Give recorded IC50. COc1ncnc(NS(=O)(=O)c2ccc(N)cc2)c1OC [SULFADOXINE]
Not Active
